Below, each entry is listed with its recorded AC50.
System: HTT mRNA
measurement description: Splicing RT-qPCR assay, canonical (CJ) and alternative (AJ) junction mRNA, K562 cells
Format: cell-based
protocol conditions: Homo sapiens, K562.3 cells, 24 hours, read-out: HTT AJ (AC50, increase in AJ mRNA)

INSERT INTO assay_data (compound, observed_value) VALUES
  ('CN[C@H]1CCN(c2ccc(C(=O)Nc3cc(F)c4nc(C)cn4c3)c3nn(C)cc23)[C@@H]1C (single isomer, unassigned)', '> 10 µM'),
  ('CCNC1CCN(c2ccc(C(=O)Nc3cc(C)c4nc(C)cn4n3)c3nn(C)cc23)CC1', '0.1 to 1 µM'),
  ('Cc1cn2cc(NC(=O)c3ccc(N4CCNCC4)c4cc[nH]c34)cc(F)c2n1', '> 10 µM');

Would you kindly share the measured AC50 for Cc1cn2cc(NC(=O)c3ccc(N4C[C@H](C)N[C@@H](C)C4)c4[nH]cnc34)cc(F)c2n1 ?
> 10 µM

Would you kindly share the measured AC50 for Cc1cn2cc(NC(=O)c3c(F)cc(N4CC[C@H](NCC56CC(CO5)C6)C4)c4cn(C)nc34)cc(F)c2n1 ?
> 10 µM

Would you kindly share the measured AC50 for Cc1cn2cc(C(=O)Nc3ccc(N4C[C@@H](C)N[C@@H](C)C4)c4cn[nH]c34)cc(F)c2n1 ?
> 10 µM

Would you kindly share the measured AC50 for Cc1cn2cc(NC(=O)c3ccc(N4C[C@@H](C)N[C@@H](C)C4)c4c3nnn4C)cc(F)c2n1 ?
1 to 10 µM

---

Test system: MYB mRNA
measurement description: Gene panel canonical junction qPCR assay, decrease in CJ mRNA, Table 3
Assay type: cell-based
protocol conditions: decrease in CJ mRNA levels, canonical junction qPCR, gene panel
Below, each entry is listed with its recorded IC50.

Guide cases for IC50, answers given:
INSERT INTO results (molecule_smiles, observed_value) VALUES
  ('COCc1cc2c(N3CCC(NC4CC4)CC3)ccc(C(=O)Nc3cc4cn(C)nc4cc3OC)n2n1', '0.1 to 1 µM'),
  ('Cc1cn2cc(NC(=O)c3ccc(N4CCC(NC5CC5)CC4)c4cn(C)nc34)nc2c(CNC2(C)COC2)n1', '> 10 µM'),
  ('CCNC1CCN(c2ccc(C(=O)Nc3cc(CC(N)=O)c4nn(C)cc4c3)c3nn(C)cc23)CC1', '> 10 µM');

Would you kindly share the measured IC50 for CCNC1CCN(c2cc(Br)c(C(=O)Nc3cn4cc(C)nc4c(F)c3OC)c3nn(C)cc23)CC1 ?
< 0.1 µM

---

Tested on: MYB mRNA
measurement description: Gene panel canonical junction qPCR assay, decrease in CJ mRNA, Table 3
Assay type: cell-based
protocol conditions: decrease in canonical junction (CJ) mRNA, gene panel qPCR, Table 3
Where a name gives a salt, the structure may show the parent alone.
experimental readout: IC50

Guide cases for IC50, answers given:
INSERT INTO measurements (compound, tested_target, experimental_readout, observed_value) VALUES
  ('Cc1cn2cc(NC(=O)c3ccc(N4CCC5NCCCC54)c4cn(C)nc34)cc(F)c2n1 (stereo not shown)', 'MYB mRNA', 'IC50', '0.1 to 1 µM'),
  ('CCN[C@@H]1CCN(c2cc(O)c(C(=O)Nc3cc(F)c4nc(C)cn4c3)c3nn(C)cc23)C1', 'MYB mRNA', 'IC50', '< 0.1 µM'),
  ('CN[C@@H]1CN(c2ccc(C(=O)Nc3cc(F)c4nc(C)cn4c3)c3nn(C)cc23)C[C@H]1C', 'MYB mRNA', 'IC50', '0.1 to 1 µM');

Would you kindly share the measured IC50 for COCC1(N[C@H]2CCN(c3ccc(C(=O)Nc4cc(F)c5nc(C)cn5c4)c4nn(C)cc34)C2)CC1 ?
1 to 10 µM

Would you kindly share the measured IC50 for CCNC1CCN(c2ccc(C(=O)Nc3cn4cc(C)nc(C)c4c3OC)c3nn(C)cc23)CC1 [Compound 452, trifluoroacetate] ?
> 10 µM

Would you kindly share the measured IC50 for Cc1cn2cc(NC(=O)c3c(F)cc(N4CC5(CNC5)C4)c4cn(C)nc34)nc2c(C)n1 ?
0.1 to 1 µM

Would you kindly share the measured IC50 for Cc1cc2cc(NC(=O)c3ccc(N4CCC(NC5CC5)CC4)c4cn(C)nc34)sc2c(C)n1 ?
> 10 µM
